Test system: Pseudaletia separata Walker
Test: Insecticidal activity against armyworms, leaf-dipping method
Format: in vivo
Settings: Mythimna separata, foliar, 120 h, read-out: Pseudaletia separata Walker Mortality rate (%, 500 mg L^−1)
From the text: Second instar Pseudaletia separata Walker larvae were used as the subjects and the dipping method was employed for testing. Pseudaletia separata Walker, which is a very important lepidopterans pest of various grains, can be suitably used in various of applications, for example, in the study of toxicity, such as the stomach toxicity, contact poisoning, comprehensive and residual effects of insecticides, and other aspects of insect toxicology, as well as the screen test for new compounds. […]
mortality at 500 µg/mL listing for selected molecules.
value.type: mortality at 500 µg/mL (%)

1. O=[N+]([O-])C1=C2N(Cc3ccccc3)CCN2[C@@H]2CC[C@H]1O2; 0
2. O=[N+]([O-])NC1=NCCN1Cc1ccc(Cl)nc1 [Imidacloprid, reference compound]; 100
3. O=[N+]([O-])C1=C2N(Cc3cnc(Cl)s3)CCN2[C@H]2CCC[C@@H]1O2; 0
4. O=[N+]([O-])C1=C2N(Cc3cnc(Cl)s3)CCN2[C@@H]2CC[C@H]1O2; 100
5. O=[N+]([O-])C1=C2N(Cc3ccccc3)CCN2[C@H]2CCC[C@@H]1O2; 0
6. O=[N+]([O-])C1=C2N(Cc3ccc(Cl)cc3)CCN2[C@@H]2CC[C@H]1O2; 0
7. O=[N+]([O-])C1=C2N(Cc3ccc(Cl)nc3)CCN2[C@H]2CCC[C@@H]1O2; 0
8. O=[N+]([O-])C1=C2N(Cc3ccc(Cl)nc3)CCN2[C@@H]2CC[C@H]1O2; 100

----------
Test system: Aphis craccivora
Assay: Insecticidal activity against aphids, dipping method
Assay type: in vivo
Conditions: Aphis craccivora, 24 h, read-out: Aphis craccivora Mortality rate (%, 500 mg L^−1)
value.type: mortality at 500 µg/mL (%)

1) O=[N+]([O-])C1=C2N(Cc3ccc(Cl)nc3)CCN2[C@H]2CCC[C@@H]1O2; 87.3
2) O=[N+]([O-])C1=C2N(Cc3cnc(Cl)s3)CCN2[C@H]2CCC[C@@H]1O2; 98.2
3) O=[N+]([O-])C1=C2N(Cc3cnc(Cl)s3)CCN2[C@@H]2CC[C@H]1O2; 100
4) O=[N+]([O-])C1=C2N(Cc3ccc(Cl)nc3)CCN2[C@@H]2CC[C@H]1O2; 100
5) O=[N+]([O-])NC1=NCCN1Cc1ccc(Cl)nc1 [Imidacloprid, reference compound]; 100
6) O=[N+]([O-])C1=C2N(Cc3ccccc3)CCN2[C@@H]2CC[C@H]1O2; 13.6
7) O=[N+]([O-])C1=C2N(Cc3ccc(Cl)cc3)CCN2[C@@H]2CC[C@H]1O2; 95.7

# credit: patent US8809319B2
